assay: NCI Yeast Anticancer Drug Screen. Data for the mlh1 rad18 strain (AID 175); conditions: S. cerevisiae mlh1 rad18 strain growth inhibition; at 50.0 µM; stronger effect = higher value
This is part of a sample that, as a whole, favours compounds with a hit. Of some 79,000 tested, about 15% had one in any assay.
reported-endpoint: growth inhibition (%)
Your answer is read as %, so omit the unit and give the number.

Example results:
molecule: CCOC(=O)CSCCC#N
units: %
observed-result: 0.65
//
molecule: Cc1ccc(S(=O)(=O)Oc2ccc3sc4c(CO)ccc(NCCN(C)C)c4c(=O)c3c2)cc1
units: %
observed-result: 1.55
//
molecule: NCCCN1CCCC1=O
units: %
observed-result: -15.1
//
molecule: O=Cc1ccc(Cl)c(Cl)c1
units: %
observed-result: -23.1
//
molecule: Cc1cc(NC(=O)c2ccccc2)c(Cl)cc1N
units: %
observed-result: -7.95

### Prompt Could you tell me which growth inhibition is on file for Oc1cc(O)c2c(c1)O[C@H](c1ccc(O)c(O)c1)[C@@H](O)C2 ?
### Response -18.1

### Prompt Entry CCOC(=O)CO has what growth inhibition?
### Response 18.9

### Prompt Sample Cc1c(Cl)cccc1N=C=S — what was its growth inhibition?
### Response 8.7

### Prompt Given the entry Cn1c(=O)c2[nH]c(CCCCC(=O)O)nc2n(C)c1=O , report its measured growth inhibition.
### Response 4.2

### Prompt Could you share which growth inhibition value was measured for CCCCn1cnc2c(=O)[nH]cnc21 ?
### Response 2.3

### Prompt Item under review: COc1ccc2c(Cl)cc(NC(=O)Nc3c(C)cccc3C)nc2c1 . Reported growth inhibition?
### Response 7.2

### Prompt Quick check: growth inhibition of CCOC(=O)c1c(C)[nH]c(C)c1C=O ?
### Response 3.9

* * *

assay: NCI Yeast Anticancer Drug Screen. Data for the mlh1 rad18 strain (AID 175); settings: S. cerevisiae mlh1 rad18 strain growth inhibition; at 50.0 µM; stronger effect = higher value
This is part of a sample that, as a whole, favours compounds with a hit. Of some 79,000 tested, about 15% had one in any assay.
Measured growth inhibition, listed per entry for reference.
Answer in %, number only, no unit symbol.

Would you please look over these solved cases?
compound: CCCCCCCCCCCCCCCCOc1ccccc1NC(=O)CC(C)=O
units: %
growth inhibition: -3.95
//
compound: CCOC(=O)N[C@H]1CCc2cc(OC)c(OC)c(OC)c2-c2ccc(SC)c(=O)cc21
units: %
growth inhibition: -1.55
//
compound: CCCCOC(=O)c1ccc(NC(=O)CCl)cc1
units: %
growth inhibition: 43.4
//
compound: C=CCNC(=S)N/C=C(/C(=O)c1ccccc1)c1ccccc1
units: %
growth inhibition: -53.6
//
compound: c1ccc2c(NCCCN3CCN(CCCNc4c5ccccc5nc5ccccc45)CC3)c3ccccc3nc2c1
units: %
growth inhibition: 14.9
//
compound: CC(=O)c1cccs1
units: %
growth inhibition: 6.7
//
compound: S=C(Sc1ccc(Cl)cc1)Sc1ccc(Cl)cc1
units: %
growth inhibition: 24.1
//
compound: CCOP(=O)(OCC)/C(=C\N1C(=O)CC(=O)NC1=S)C(=O)OC
units: %
growth inhibition: -5.55

### Prompt So what does the record say about growth inhibition for Cc1ccc([N+](=O)[O-])c(C)n1 ?
### Response 23.4

### Prompt Record request: growth inhibition value, item CCN(CC)CCN1CNC(=S)NC1
### Response -7.15

### Prompt Given the compound CCCCNc1ccc(-c2ccc(NCCCC)cc2)cc1 , what is its reported growth inhibition?
### Response 59.5

* * *

test: NCI Yeast Anticancer Drug Screen. Data for the bub3 strain (AID 167); conditions: S. cerevisiae bub3 mutant strain, at 50.0 µM, stronger effect = higher value
About 79,000 compounds went through this panel and 15% of them were active in at least one assay; those are over-represented in the sample as a whole.
Parameter growth inhibition: see the listing below.
Please reply with the bare figure in % and do not write the unit itself.

Solved entries:
molecule: CN(C)c1ccc2nc3ccc(=[N+](C)C)cc-3oc2c1
units: %
growth inhibition: 6.1
--
molecule: C=CCc1cc(OC)c(O)c(OC)c1
units: %
growth inhibition: 0.75
--
molecule: C=CC(=O)OC1CCC(C(C)(C)CC)CC1 (configuration not stated)
units: %
growth inhibition: -8.15

### Prompt Consider the molecule shown here: OC1Cc2ccccc2C1 What is its recorded growth inhibition?
### Response -28.1

### Prompt Look at this molecule and give its reported growth inhibition. CC(=O)NC(CCC(=O)c1ccccc1)C(=O)O (configuration not stated)
### Response 0

### Prompt // lookup growth inhibition for CCCCNc1ccc(-c2ccc(NCCCC)cc2)cc1
### Response -5.3

### Prompt For the molecule shown here, Cc1ccc(N)c(S(=O)(=O)O)c1 , give the reported growth inhibition.
### Response 8.85

### Prompt What growth inhibition value was documented for this molecule, CCCc1cccc(CCC)c1NC(=O)Nc1cc(Cl)cc(Cl)c1 ?
### Response 44

### Prompt Would you mind telling me what growth inhibition value was observed for CC(=O)N=c1ccc2nc3c(cc(N)c4ccccc43)oc-2c1 ?
### Response 40.5

### Prompt I'd like to know its growth inhibition. The molecule in question is Oc1ccc2ccccc2c1CN1CCOCC1
### Response 15.1

### Prompt Form field: reported growth inhibition of NCCCN1CCCC1=O
### Response -23.3

### Prompt Fill in the blank: the reported growth inhibition of CC(=O)N(CCCCCCN(C(C)=O)C(C)=O)C(C)=O is ____.
### Response -9.85

### Prompt Given Cc1cc(=O)n(Nc2ccccc2)c(O)c1C#N , state its recorded growth inhibition.
### Response 5.6

### Prompt Quick one: growth inhibition for BrCc1cccc(C[P+](c2ccccc2)(c2ccccc2)c2ccccc2)c1 ?
### Response 38.5

### Prompt Fill in the blank: the reported growth inhibition of O=[N+]([O-])c1c(O)c(CNCCCO)cc(CNCCCO)c1O is ____.
### Response 25.9

### Prompt Query: growth inhibition; subject: CN=S(=O)(OCCCCCOS(=O)(=NC)c1ccc(C)cc1)c1ccc(C)cc1 (configuration not stated)
### Response -41.3

### Prompt Please report the recorded growth inhibition for Cc1cc(C(=O)NN)c(C#N)c(=O)[nH]1 .
### Response 2.6

* * *

assay: NCI Yeast Anticancer Drug Screen. Data for the mec2-1 strain (AID 157); settings: S. cerevisiae mec2-1 strain, at 50.0 µM, stronger effect = higher value
About 79,000 compounds went through this panel and 15% of them were active in at least one assay; those are over-represented in the sample as a whole. The source made the active and inactive calls. No stated cut-off is given here; in the data, active means growth inhibition above about 70%; inactive means the rest.
reported-endpoint: growth inhibition

### Prompt Look at this compound and give its reported growth inhibition. COC(C(=O)C(O)C(C)O)C1Cc2cc3cc(OC4CC(OC5CC(O)C(O)C(C)O5)C(O)C(C)O4)c(C)c(O)c3c(O)c2C(=O)C1OC1CC(OC2CC(O)C(OC3CC(C)(O)C(O)C(C)O3)C(C)O2)C(O)C(C)O1 (centres undefined)
### Response -23.4% (inactive)

### Prompt Look up growth inhibition: S=C(NCc1ccccc1)N1CCC(CCCC2CCN(C(=S)NCc3ccccc3)CC2)CC1
### Response -32.1% (inactive)

### Prompt Sample C/C=C/C1OCC(CC)C(CCC)O1 (centres undefined) — what was its growth inhibition?
### Response 11.2% (inactive)

### Prompt I have this compound here, NC(=O)c1cc2c3ccccc3ccn2c1-c1ccccc1 , and I need its recorded growth inhibition.
### Response 27.2% (inactive)

* * *

assay: NCI Yeast Anticancer Drug Screen. Data for the mec2-1 strain (AID 157); conditions: S. cerevisiae mec2-1 strain, at 50.0 µM, stronger effect = higher value
The panel holds about 79,000 compounds, 15% with a hit somewhere; the sample as a whole holds those more often.
reported-endpoint: growth inhibition (%)
Report as a plain number; the unit % is understood.

compound: CC(=O)N(C)N=Nc1ccc(C)cc1
growth inhibition (%): -23.6

### Prompt Name the reported growth inhibition value associated with the compound CC1CC(C)S(=O)(=O)C1 (stereo not drawn)
### Response -30.9

### Prompt # lookup: growth inhibition of Cc1ccc(S(=O)(=O)NC(=O)NCCSSCCNC(=O)NS(=O)(=O)c2ccc(C)cc2)cc1
### Response -7.35

### Prompt Recorded growth inhibition for C/C(O)=C(/C=N/C(=S)Nc1ccccc1)C(=O)Nc1ccccc1C , please?
### Response 5.6

### Prompt For C1CCc2onc(-c3noc4c3CCCCC4)c2CC1 , what is its reported growth inhibition?
### Response -15.8

### Prompt Param item = CN(C)Cc1ccccn1 ; retrieve measured growth inhibition.
### Response -17

### Prompt Which growth inhibition reading was recorded for the compound CC(C)c1ccccc1NC(=O)N1CCC(C(C)C)CC1 ?
### Response -42.6

### Prompt Suppose we examine the compound CCOC(=O)c1ccc(C(C)(C)C)cc1 ; what growth inhibition value has been reported?
### Response -6.65

### Prompt What does the record list as growth inhibition for Nc1nnc2cc(F)ccc2n1 ?
### Response -9.75
